- Test system: Pseudomonas fluorescens
- assayExplanation: Antibacterial activity against Pseudomonas fluorescens S 97 at 100 ug/ml after 24 hr by agar diffusion method
- Format: functional
- recordedConditions: S 97, 24 h, read-out: DIZ
Response key: YES means zone of inhibition at 100 µg/mL >= 20 mm; NO means zone of inhibition at 100 µg/mL < 20 mm.

For this compound, is measured zone of inhibition at 100 µg/mL 20 mm or higher? CC(=O)OCC1=C(C(=O)O)N2C(=O)[C@@H](NC(=O)Cc3cccs3)[C@H]2SC1 [CEPHALOTHIN]
YES

For this compound, is measured zone of inhibition at 100 µg/mL 20 mm or higher? Cc1ccc2oc(=O)c3cc4c(nc3c2c1)CCC4
NO

For this compound, is measured zone of inhibition at 100 µg/mL 20 mm or higher? Cc1cccc2c1oc(=O)c1cc3c(nc12)CCC3
NO

For this compound, is measured zone of inhibition at 100 µg/mL 20 mm or higher? O=c1oc2ccc(Cl)cc2c2nc3c(cc12)CCc1ccccc1-3
NO

For this compound, is measured zone of inhibition at 100 µg/mL 20 mm or higher? O=C(N[C@H](CO)[C@H](O)c1ccc([N+](=O)[O-])cc1)C(Cl)Cl [CHLORAMPHENICOL]
YES

For this compound, is measured zone of inhibition at 100 µg/mL 20 mm or higher? Cc1cccc2c1oc(=O)c1cc3c(nc12)-c1ccccc1CC3
NO

For this compound, is measured zone of inhibition at 100 µg/mL 20 mm or higher? Cc1ccc2oc(=O)c3cc4c(nc3c2c1)-c1ccccc1CC4
NO

For this compound, is measured zone of inhibition at 100 µg/mL 20 mm or higher? Cc1ccc2oc(=O)c3cc4c(nc3c2c1)CCCC4
NO

For this compound, is measured zone of inhibition at 100 µg/mL 20 mm or higher? O=c1oc2ccccc2c2nc3c(cc12)CCc1ccccc1-3
NO

For this compound, is measured zone of inhibition at 100 µg/mL 20 mm or higher? O=c1oc2ccccc2c2nc3c(cc12)CCCC3
NO

For this compound, is measured zone of inhibition at 100 µg/mL 20 mm or higher? O=c1oc2ccccc2c2nc3c(cc12)CCC3
NO
